assay.method.text: Dissociation constant, pKa of the compound
Assay type: physicochemical
result.type: pKa

- compound: "NC(=O)c1c(COC2=C(O)C(=O)OC2C(O)CO)no[n+]1[O-] (stereo unspecified)"
  pKa: 7.07
- compound: "O=C1OC(C(O)CO)C(O)=C1OCCCO[N+](=O)[O-] (stereo unspecified)"
  pKa: 3.19
- compound: "COC1=C(O)C(=O)O[C@@H]1[C@@H](O)CO"
  pKa: 7.54
- compound: "O=C1OC(C(O)CO)C(OCCCCC(CO[N+](=O)[O-])O[N+](=O)[O-])=C1O (stereo unspecified)"
  pKa: 7.64
- compound: "O=C1OC(C(O)CO)C(OCCCO[N+](=O)[O-])=C1O (stereo unspecified)"
  pKa: 7.55

I: O=C1OC(C(O)CO)C(OCCCOc2no[n+]([O-])c2-c2ccccc2)=C1O (stereo unspecified)
II: O=C1OC(C(O)CO)C(O)=C1OCCCOc1no[n+]([O-])c1-c1ccccc1 (stereo unspecified)
Query: Compare I and II by numeric pKa and name the larger one. Let me know the label of the one you choose.
Reply: I

# credit: ChEMBL document CHEMBL1157181
